Details: 333.15 K; 100 kPa; Liquid; Vibrating tube method
readout.label: mass density (kg/m3)

>>> df
                             molecule  recorded_result
0     CCCCC(=O)OC [methyl pentanoate]           848.52
1     CCCCCC(=O)OC [methyl hexanoate]           845.43
2       CCCC(=O)OC [methyl butanoate]           853.11
3   CCCCCCCC(=O)OC [methyl octanoate]           841.41
4   CCCCCCC(=O)OC [methyl heptanoate]           843.03
5  CCCCCCCCC(=O)OC [methyl nonanoate]           839.92

====

Conditions: 343.15 K; 25000 kPa; Liquid; Vibrating tube method
readout.label: mass density (kg/m3)

>>> print(df.to_string())
                             compound  recorded_result
0     CCCCC(=O)OC [methyl pentanoate]           863.69
1     CCCCCC(=O)OC [methyl hexanoate]           859.46
2  CCCCCCCCC(=O)OC [methyl nonanoate]           852.29
3       CCCC(=O)OC [methyl butanoate]            869.1
4   CCCCCCCC(=O)OC [methyl octanoate]           854.17
5   CCCCCCC(=O)OC [methyl heptanoate]           856.55

====

Conditions: 323.15 K; 100 kPa; Liquid; Vibrating tube method
readout.label: mass density (kg/m3)

>>> print(df.to_string())
                             compound  readout_label  recorded_result
0     CCCCC(=O)OC [methyl pentanoate]   mass density           858.83
1   CCCCCCCC(=O)OC [methyl octanoate]   mass density           850.11
2   CCCCCCC(=O)OC [methyl heptanoate]   mass density           852.25
3  CCCCCCCCC(=O)OC [methyl nonanoate]   mass density           848.37
4       CCCC(=O)OC [methyl butanoate]   mass density           864.35
5     CCCCCC(=O)OC [methyl hexanoate]   mass density           855.18

====

Settings: 313.15 K; 5000 kPa; Liquid; Vibrating tube method
readout.label: mass density (kg/m3)

>>> df
                             compound  readout_label  recorded_result
0   CCCCCCCC(=O)OC [methyl octanoate]   mass density           862.89
1       CCCC(=O)OC [methyl butanoate]   mass density           880.45
2     CCCCC(=O)OC [methyl pentanoate]   mass density           873.76
3     CCCCCC(=O)OC [methyl hexanoate]   mass density           869.26
4   CCCCCCC(=O)OC [methyl heptanoate]   mass density           865.62
5  CCCCCCCCC(=O)OC [methyl nonanoate]   mass density           860.86

====

Conditions: 353.15 K; 1000 kPa; Liquid; Vibrating tube method
readout.label: mass density (kg/m3)

                             compound  display_unit  recorded_result
0     CCCCC(=O)OC [methyl pentanoate]         kg/m3           828.43
1  CCCCCCCCC(=O)OC [methyl nonanoate]         kg/m3           823.57
2     CCCCCC(=O)OC [methyl hexanoate]         kg/m3            826.5
3       CCCC(=O)OC [methyl butanoate]         kg/m3            830.8
4   CCCCCCC(=O)OC [methyl heptanoate]         kg/m3           825.27
5   CCCCCCCC(=O)OC [methyl octanoate]         kg/m3           824.37
